System: Tomato Late Blight Fungus (Phytophthora infestans)
Format: in vivo
Conditions: 250 ppm, 10 ml per pot foliar spray, tomato (Red Cherry), degree of disease vs untreated pot after 24 hours moist chamber and 4 days greenhouse
Please go through the items and note down their Control Value (%).
Quick note: give the figure in %, leave out the unit.

QUERY: Entry under review: Cc1nn(C)c(C(=O)NCc2ccc(Oc3ccc4ccccc4c3)nc2)c1Cl . Reported Control Value (%)?
RESULT: 100

QUERY: Any idea what its Control Value (%) is? The compound is Cc1nn(C)c(C(=O)NCc2ccc(Oc3cccc(C(F)(F)F)c3)nc2)c1C
RESULT: 100

QUERY: Give its Control Value (%) value. Item: COc1c(C)nn(C)c1C(=O)N(Cc1ccc(Oc2ccc3ccccc3c2)nc1)C(C)=O
RESULT: 100

QUERY: Quick check: Control Value (%) of CCc1nn(C)c(C(=O)NCc2ccc(Oc3cccc(C(F)(F)F)c3)nc2)c1Cl ?
RESULT: 85

QUERY: Requested field: Control Value (%). Item: Cc1nn(C)c(C(=O)NCc2ccc(Oc3cccc(Cl)c3)nc2)c1C
RESULT: 100

QUERY: Any idea what Control Value (%) was measured for Cn1nc2c(c1C(=O)NCc1ccc(Oc3ccc4ccccc4c3)nc1)CCC2 ?
RESULT: 100
